Experiment: in vitro
Settings: 25% fetal bovine serum (FBS)
Ends that are not written are not given here.
measured_property: metabolised at 1 h, 0.385 mg/ml (%)
Form entry: value (%) — number only.

Inquiry: Given RKWRKWWK [RK8] , state its recorded metabolised at 1 h, 0.385 mg/ml.
Reply text: 12.2

Provenance of the data: paper PMC11637823
